Target: P. falciparum apicoplast DNA polymerase (Pf-apPOL) (Plasmodium falciparum)
Sequence (Q8ILY1 entry or part of it): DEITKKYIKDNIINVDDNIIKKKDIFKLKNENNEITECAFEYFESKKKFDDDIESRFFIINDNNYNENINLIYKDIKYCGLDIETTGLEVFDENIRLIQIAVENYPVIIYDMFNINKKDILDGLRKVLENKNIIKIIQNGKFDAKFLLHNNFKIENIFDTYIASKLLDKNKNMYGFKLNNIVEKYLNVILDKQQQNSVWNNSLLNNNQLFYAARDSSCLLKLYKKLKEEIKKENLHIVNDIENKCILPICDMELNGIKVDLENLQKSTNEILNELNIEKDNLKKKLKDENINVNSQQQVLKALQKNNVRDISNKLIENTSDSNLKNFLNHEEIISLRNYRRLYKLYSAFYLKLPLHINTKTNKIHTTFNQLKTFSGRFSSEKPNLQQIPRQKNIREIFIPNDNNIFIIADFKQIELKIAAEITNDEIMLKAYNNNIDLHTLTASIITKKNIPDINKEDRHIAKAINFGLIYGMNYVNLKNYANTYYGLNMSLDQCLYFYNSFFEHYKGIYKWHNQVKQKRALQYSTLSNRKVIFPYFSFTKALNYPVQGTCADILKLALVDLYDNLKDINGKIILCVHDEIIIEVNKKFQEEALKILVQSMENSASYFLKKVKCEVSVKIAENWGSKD
Assay: Fluorescence-based high-throughput DNA polymerase assay (molecular beacon), primary screen and dose-response;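 note: compound concentration given in µM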
Format: biochemical
Settings: DRC-2, 40', concentration 40
Assign % inhibition Apol 40' to each entry below.
Give bare numbers, in %.

O=C(Nc1nnc(-c2cccs2)o1)c1ccc([N+](=O)[O-])o1 [Molecule 74] ... 61
O=C(Nc1ncc([N+](=O)[O-])s1)c1ccc2c(c1)C(=O)N(N1C(=O)c3ccccc3C1=O)C2=O [KU0026378] ... 62
CCSc1nnc(NC(=O)Cc2csc(NC(=O)c3cnccn3)n2)s1 [Molecule 79] ... 62
COc1cc(/C=C2\S/C(=N/C(C)=O)NC2=O)cc(Br)c1OCC(=O)O [KU0057841] ... 47
O=[N+]([O-])c1cc2c(cc1CN1CCCCCC1)OCO2 [KU0004987] ... 39

// each molecule listed below needs its % inhibition Apol 40'
1. CCOC(=O)C(NCc1ccco1)(NC(=O)c1ccco1)C(F)(F)F (stereo not shown) [KU0276119]
2. O=[N+]([O-])c1cc2c(cc1CN1CCN(c3cccc(Cl)c3)CC1)OCO2 [KU0005610]
3. O=C(Nc1nnc(-c2ccno2)o1)c1ccc2ncsc2c1 [Molecule 62, O=C(c1ccc2c(c1)scn2)Nc1nnc(o1)c1ccno1]
4. CN(C)C=C1SCc2ccccc2C1=O [Molecule 77, CN(C=C1SCc2c(C1=O)cccc2)C]
5. O=C(O)C(=O)Nc1nc(-c2ccc3c(c2)OCCO3)cs1 [Molecule 82, OC(=O)C(=O)Nc1scc(n1)c1ccc2c(c1)OCCO2]

41
49
53
34
37
